Target: T1, Bicoid DBD-GST (Bcd) (UniProt P09081 83-170)
T1 sequence: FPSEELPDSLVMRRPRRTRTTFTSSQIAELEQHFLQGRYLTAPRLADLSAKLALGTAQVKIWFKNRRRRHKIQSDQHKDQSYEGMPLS
Test: competitive fluorescence anisotropy (HiP-FA); mean of replicates 5.027, 4.3975; HiP-FA: 33 mM phosphate pH 7.0, 90 mM NaCl, 0.01% Tween 20, 0.1 mM DTT, 0.5% agarose; conventional titration and EMSA: 20 mM Tris-acetate pH 7.0, 50 nM (sic) NaCl, 0.01% Tween-20, 0.1 mM DTT
Settings: protein: recombinant; tags: N-terminal GST; blunt, G:G mismatch at position 6
measured_endpoint: pKd
One number for each entry, as −log10 of the molar value.

Task: Looking for the measured pKd of Bcd competitor 33 (T11A) (dsDNA) DNA 1: TCGACGGTAATCCCAA DNA 2: TTGGGATTACGGTCGA , can you help?
Result: 8.33
